Data credit: ChEMBL document CHEMBL3885861

Species on record: Rattus norvegicus
protocol: Open TG-GATES - Regimen: Single
Type: toxicity, organism-based, Sprague-Dawley
Parameters: regimen Single, gender Male, age 6 weeks
conditionNotes: in vivo, po, 0 mg/kg, 6 h, tissue Plasma, route gavage, dose level Control
Threshold check on BUN: at or above 10 mg/dL gives criterion met, strictly below gives criterion not met.

Reference set (3 entries):
CC[C@@H](CO)NCCN[C@@H](CC)CO [ETHAMBUTOL] | criterion met
CCN(CC)N=O [N-NITROSODIETHYLAMINE] | criterion met
CC(=O)N1CCN(c2ccc(OCC3COC(Cn4ccnc4)(c4ccc(Cl)cc4Cl)O3)cc2)CC1 (stereo unspecified) [KETOCONAZOLE] | criterion not met

## Input Please indicate if the recorded BUN for CC(=O)Nc1ccc2c(c1)Cc1ccccc1-2 [2-ACETYLAMINOFLUORENE] meets or exceeds 10 mg/dL.
## Output criterion not met

## Input Please indicate if the recorded BUN for CC(CCc1ccccc1)NCC(O)c1ccc(O)c(C(N)=O)c1 (stereo unspecified) [LABETALOL] meets or exceeds 10 mg/dL.
## Output criterion not met

## Input Please indicate if the recorded BUN for O=C(O)COc1nn(Cc2ccccc2)c2ccccc12 [BENDAZAC] meets or exceeds 10 mg/dL.
## Output criterion met

====

Reported Mono by item:
Species on record: Rattus norvegicus
protocol: Open TG-GATES - Regimen: Daily Repeat
Format: toxicity, organism-based, Sprague-Dawley
Set-up: regimen Daily Repeat, gender Male, age 6 weeks
conditionNotes: in vivo, po, 0 mg/kg, […], tissue Blood, route gavage, dose level Control, time 28 day
Reply numerically in %, unit not repeated.

These solved cases illustrate the format of a correct answer.
CC(CCc1ccccc1)NCC(O)c1ccc(O)c(C(N)=O)c1 (stereo not given) [LABETALOL] | 3.2
CC(=O)Nc1ccc2c(c1)Cc1ccccc1-2 [2-ACETYLAMINOFLUORENE] | 2.2
CC(=O)N1CCN(c2ccc(OCC3COC(Cn4ccnc4)(c4ccc(Cl)cc4Cl)O3)cc2)CC1 (stereo not given) [KETOCONAZOLE] | 1.6
CCN(CC)N=O [N-NITROSODIETHYLAMINE] | 2

## Input Quick one: give measured Mono for CC(C)Cc1ccc(C(C)C(=O)O)cc1 (stereo not given) [IBUPROFEN]
## Output 2.2

====

Species on record: Rattus norvegicus
protocol: Open TG-GATES - Regimen: Daily Repeat
Format: toxicity, organism-based, Sprague-Dawley
Parameters: regimen Daily Repeat, gender Male, age 6 weeks
conditionNotes: in vivo, po, 0 mg/kg, […], tissue Blood, route gavage, dose level Control, time 14 day
Reported Bas by item:
Reply numerically in %, unit not repeated.

These solved cases illustrate the format of a correct answer.
O=C(O)COc1nn(Cc2ccccc2)c2ccccc12 | 0
CC(=O)Nc1ccc2c(c1)Cc1ccccc1-2 | 0.8
CC(=O)N1CCN(c2ccc(OCC3COC(Cn4ccnc4)(c4ccc(Cl)cc4Cl)O3)cc2)CC1 (stereo not drawn) | 0
CC(CCc1ccccc1)NCC(O)c1ccc(O)c(C(N)=O)c1 (stereo not drawn) | 0.2
CC(N)=O [ACETAMIDE] | 0

## Input Quick one: give measured Bas for CC[C@@H](CO)NCCN[C@@H](CC)CO
## Output 0

## Input Quick one: give measured Bas for CC(C)Cc1ccc(C(C)C(=O)O)cc1 (stereo not drawn)
## Output 0

## Input Quick one: give measured Bas for CCN(CC)N=O
## Output 1
